system-under-test: T1, human GIP receptor (human) (UniProt P48546)
T1 sequence (looked up): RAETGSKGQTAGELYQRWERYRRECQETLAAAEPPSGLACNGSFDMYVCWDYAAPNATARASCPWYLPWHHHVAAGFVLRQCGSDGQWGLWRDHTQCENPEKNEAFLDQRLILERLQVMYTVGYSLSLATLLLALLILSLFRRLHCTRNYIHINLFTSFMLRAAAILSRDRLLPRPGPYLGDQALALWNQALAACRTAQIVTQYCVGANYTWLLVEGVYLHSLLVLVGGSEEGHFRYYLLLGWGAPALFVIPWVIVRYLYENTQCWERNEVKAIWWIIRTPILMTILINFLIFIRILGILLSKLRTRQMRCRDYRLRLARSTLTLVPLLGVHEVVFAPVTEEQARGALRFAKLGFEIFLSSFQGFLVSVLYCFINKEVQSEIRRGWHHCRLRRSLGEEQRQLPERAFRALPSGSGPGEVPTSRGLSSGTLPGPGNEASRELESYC
assay: cell-based or functional assay
quantity: cAMP Rel EC50 (in the presence of 1% HSA) (nM)
Give the value, in units of nM, as a plain number.

{"binder": "YXQGTFTSDFSXXLDKKAQXAFIEYLLEAGPSSGXPPPSGS (non-natural residues; lipidated Lys (AEEA)2-γGlu-C18 diacid; C-term amide; synthetic construct; SITE 2: note = 2-Aminoisobutyric Acid; SITE 12: note = L-ornithine; SITE 13: note = …; SITE 17: note = Lysine is chemically modified through conjugation of the epsilon-amino group of the Lysine side chain with (2-[2-(2-Amino-ethoxy)-ethoxy]-acetyl)2-(gamma-Glu)) [Example 254]", "assay-value": 21.4}
{"binder": "YXQGTXTSDXXIXLDXKAQXXFIEXLTEGGPSSGEPPPEGTEEE (acylated Lys (γGlu)2-C18 diacid; non-natural residues; C-terminal amide; synthetic construct; SITE 2: note = 2-Aminoisobutyric Acid; SITE 6: note = alpha-methyl-2-fluoro-L-phenylalanine; SITE 10: note = 3-(4-Pyridyl)-L-alanine; SITE 11: note = alpha-methyl-L-serine; SITE 13: note = alpha-methyl-leucine; SITE 16: note = L-ornithine; SITE 17: note = Lysine is chemically mo) [Example 598]", "assay-value": 3.49}
{"binder": "YXQGTFTSDFSKXLDKKAQXAFIEYLLAGGPSSGEPPPSGEX (not fully specified; synthetic construct; SITE 2: note = 2-Aminoisobutyric Acid; SITE 13: note = alpha-methyl-leucine; SITE 17: note = Lysine is chemically modified through conjugation of the epsilon-amino group of the Lysine side chain with (2-[2-(2-Amino-ethoxy)-ethoxy]-acetyl)-(gamma-Glu)-CO-(CH2) 18-CO2H; SITE 20: n) [Example 33]", "assay-value": 70.7}
{"binder": "YXQGTXTSDXSIXLDXKAQXEFIEXLAEGGPSSGAPPPSGS (acylated lysine (γ-Glu)2 C18 diacid; non-natural residues; C-terminal amide; synthetic construct; SITE 2: note = 2-Aminoisobutyric Acid; SITE 6: note = alpha-methyl-2-fluoro-L-phenylalanine; SITE 10: note = 3-(4-Pyridyl)-L-alanine; SITE 13: note = alpha-methyl-leucine; SITE 16: note = L-ornithine; SITE 17: note = Lysine is chemically modified through conjugation of the epsil) [Example 646]", "assay-value": 1.09}
{"binder": "YXQGTXTSDXSIXLDKKAQXAFIEYLEEGGPSSGAPPPSGEGE (Lys acylated with (γGlu)2-C18 diacid; non-natural residues; C-amide; synthetic construct; SITE 2: note = 2-Aminoisobutyric Acid; SITE 6: note = alpha-methyl-2-fluoro-L-phenylalanine; SITE 10: note = 3-(4-Pyridyl)-L-alanine; SITE 13: note = alpha-methyl-leucine; SITE 17: note = Lysine is chemically modified through conjugation of the epsilon-amino group of the Lysine) [Example 623]", "assay-value": 1.48}

Next binder, cAMP Rel EC50 (in the presence of 1% HSA) to be filled in.
Lookup: Consider the binder shown here: YXQGTXTSDXXIXLDXKAQXEFIEXLIEGGPSSGAPPPSGE (Aib, αMeF, 4Pal, αMeS, αMeL, Orn, Me4Pal, αMeY; lipidated Lys; amide; synthetic construct; SITE 2: note = 2-Aminoisobutyric Acid; SITE 6: note = alpha-methyl-L-phenylalanine; SITE 10: note = 3-(4-Pyridyl)-L-alanine; SITE 11: note = alpha-methyl-L-serine; SITE 13: note = alpha-methyl-leucine; SITE 16: note = L-ornithine; SITE 17: note = Lysine is chemically modified th) [Example 1170] What is its recorded cAMP Rel EC50 (in the presence of 1% HSA)?
Found: 0.663
